molecular target: Cathepsin S (Homo sapiens); test: Inhibition of recombinant cathepsin-S (unknown origin) using Z-Val-Arg-AMC as substrate by fluorescence assay
Sequence (P25774 whole entry): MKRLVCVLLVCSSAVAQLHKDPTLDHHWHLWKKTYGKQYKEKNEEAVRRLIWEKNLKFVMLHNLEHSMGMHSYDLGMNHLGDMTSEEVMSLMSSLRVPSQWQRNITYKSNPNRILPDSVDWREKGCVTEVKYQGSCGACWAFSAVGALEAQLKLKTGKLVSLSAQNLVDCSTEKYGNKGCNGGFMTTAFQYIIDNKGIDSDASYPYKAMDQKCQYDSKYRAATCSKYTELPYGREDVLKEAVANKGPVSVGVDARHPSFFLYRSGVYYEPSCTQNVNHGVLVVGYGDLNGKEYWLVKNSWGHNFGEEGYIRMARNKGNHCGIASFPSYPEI
pKi: −log10 of the molar value. Peptide text beside a SMILES is read from it. * marks the point of attachment. Cbz = O=C(OCc1ccccc1)*
outcome_measure: pKi

- CC(C)C[C@H](NC(=O)OCc1ccccc1)C(=O)N[C@@H](Cc1ccccc1)C(=O)N[C@@H](CCCCN)C(N)=O (Cbz-Leu-Phe-Lys-NH2): 4.92
- NCCCC[C@H](NC(=O)[C@H](Cc1ccc(-c2cccs2)cc1)NC(=O)OCc1ccccc1)C(N)=O: 4.55
- NCCCC[C@H](NC(=O)[C@H](Cc1ccccc1)NC(=O)[C@H](CCCCN)NC(=O)OCc1ccccc1)C(N)=O (Cbz-Lys-Phe-Lys-NH2): 4.39
- NCCCC[C@H](NC(=O)[C@H](Cc1ccccc1)NC(=O)OCc1ccccc1)C(N)=O: 4.25

[I] NCCCC[C@H](NC(=O)[C@H](Cc1ccccc1)NC(=O)[C@H](Cc1c[nH]c2ccccc12)NC(=O)OCc1ccccc1)C(N)=O (Cbz-Trp-Phe-Lys-NH2)
[II] N=C(N)NCCC[C@H](NC(=O)OCc1ccccc1)C(=O)N[C@@H](Cc1ccccc1)C(=O)N[C@@H](CCCCN)C(N)=O (Cbz-Arg-Phe-Lys-NH2)
Ask: For the two items I and II , which reports the higher pKi value? Please indicate the selected item by its label.
Reply: II
(II: 5.07, I: 4.70)
